Origin of measurements: PubChem BioAssay AID463173

# Tested on: DeltatarO mutant
# measurement-description: S. aureus survival, RN4220 and DeltatarO strains – OD600, teichoic acid synthesis inhibitors, primary screen (AID 463173)
# experimental-setup: S. aureus RN4220 wild type/DeltatarO growth, OD600, 18 h, active compounds read low, screened at 18.75 µg/mL (by protocol)
Screen size: about 52,000 compounds; about 4,300 (8.3%) were called active. This excerpt belongs to a sample that is enriched for actives.
experimental-readout: survival (%)

> print(dat)
                                   molecule  experimental.readout  reported.result
1  CCN(c1ccccc1)C(CNS(=O)(=O)c1ccccc1)c1ccccc1 (stereo not given)              survival               71
2  COc1cccc(C(=O)NC2CC(=O)N(c3ccc4c(c3)OCCO4)C2)c1OC (stereo not given)              survival              107
3  CC(C)c1ccc(N2C(=O)N(Cc3ccccc3Cl)c3ccccc3S2(=O)=O)cc1              survival               86
4     COc1ccc(NC(=O)Nc2nnc(N3CCCCCC3)s2)cc1              survival               72
5  CCCC1CC(C)(/C(C)=N\NC(N)=S)OC1=O (stereo not given)              survival               98

====

Recorded survival, one value per entry.
# System: DeltatarO mutant
# measurement-description: S. aureus survival, RN4220 and DeltatarO strains – OD600, teichoic acid synthesis inhibitors, primary screen (AID 463173)
# experimental-setup: S. aureus RN4220 wild type/DeltatarO growth, OD600, 18 h, active compounds read low, screened at 18.75 µg/mL (by protocol)
Out of some 52,000 compounds screened, about 4,300 (8.3%) were called active. What follows is part of a selection rich in actives, with near analogues and random picks from the rest.
experimental-readout: survival (%)

> print(dat)
                               input.smiles     tested.system  experimental.readout  reported.result
1  CCOC(=O)c1ccccc1NC(=O)c1ccc2c(Cl)c3c(nc2c1)CCC3  DeltatarO mutant              survival               96
2  COc1ccccc1NC(=O)Cn1c(=O)n(Cc2ccccc2)c(=O)c2sc3ccccc3c21  DeltatarO mutant              survival               68
3  O=C(NCc1cccc(Cl)c1)c1ccc2c(Cl)c3c(nc2c1)CCCC3  DeltatarO mutant              survival               48

====

# System: DeltatarO mutant
# measurement-description: S. aureus survival, RN4220 and DeltatarO strains – OD600, teichoic acid synthesis inhibitors, primary screen (AID 463173)
# experimental-setup: S. aureus RN4220 wild type/DeltatarO growth, OD600, 18 h, screened at 18.75 µg/mL (by protocol)
In all, about 52,000 compounds went through this assay and about 4,300 (8.3%) were called active. No stated cut-off is given here; in the data, active means survival mostly below about 52% (no sharp cut-off); inactive means mostly above about 56%. This excerpt belongs to a sample that is enriched for actives.
Possible outcomes: active, inactive

> print(dat)
                                    compound       cat
 1         C=CCNC(=O)Cc1c(O)c2ccccc2[nH]c1=O  inactive
 2  Cc1ccc(-c2cc(C(=O)Oc3ccccc3)c3cccc(C)c3n2)cc1  inactive
 3  COc1cccc(-c2nnc(SCC(=O)N3CCc4ccccc43)o2)c1  inactive
 4  COc1ccc(-c2cc(C(=O)Oc3cccc(C)c3)c3cc(C)ccc3n2)cc1    active
 5  CCn1c(=O)c2sccc2n2c(CCC(=O)Nc3ccc(F)cc3)nnc12  inactive
 6  CCc1ccc(-n2c(=O)c3c(C)c(C(=O)N(C)C)sc3n(Cc3cccc(C)c3)c2=O)cc1  inactive
 7  CCOc1ccc(NC(=O)CSc2cn(CC(=O)N3CCCCCC3)c3ccccc23)cc1  inactive
 8               CCCCCc1c(O)c2ccccc2[nH]c1=O  inactive
 9  CCOc1ccc(-n2c(=O)c3c(C)c(C(=O)N(C)C)sc3n(CC(=O)Nc3c(C)cc(C)cc3C)c2=O)cc1  inactive
10  COc1ccc(Cn2c(CCC(=O)NCc3cccc(Cl)c3)nc3cccnc32)cc1  inactive
11  Cc1ccc(Nc2c(C(C)C)c(C)c(C#N)c3nc4ccccc4n23)cc1  inactive
12  Cn1cc(C(=O)NCCc2ccccc2)c(=O)c2cc(S(=O)(=O)N3CCCCCC3)ccc21  inactive
13  CCN(CC)CCNc1nc2c(c(=O)n(C)c(=O)n2C)n1CCc1ccccc1  inactive
14  CCOC(=O)c1c(C)[nH]c(C)c1S(=O)(=O)NCC(=O)N1CCN(c2ccccc2OC)CC1  inactive
15  CN1C(C(=O)c2ccccc2)=C(NC(=O)c2ccccc2Br)c2ccccc2S1(=O)=O  inactive
16  CC1CCCCN1C(=O)CSc1nnc(-c2ccccc2Cl)o1 (centres undefined)  inactive
17  COc1ccc(-c2cc(C(=O)Oc3cccc(C)c3)c3ccccc3n2)cc1    active
18    CC1CCN(C(=O)CSc2nnc(-c3ccccc3Cl)o2)CC1  inactive
19  COc1cccc(-n2c(=O)c3c(C)c(C(=O)N(C)C)sc3n(Cc3ccc(F)cc3Cl)c2=O)c1  inactive
20  CCOc1ccc(-n2c(=O)c3c(C)c(C(=O)N(C)C)sc3n(Cc3cc(C)ccc3C)c2=O)cc1    active
21  Cc1ccc(-n2c(=O)c3c(C)c(C(=O)N(C)C)sc3n(Cc3ccccc3C)c2=O)cc1C  inactive
22  CCCCN1C(=O)C(O)(CC(=O)c2ccc(C(C)(C)C)cc2)c2ccccc21 (centres undefined)  inactive
23  O=C(CCc1ccccc1)NCc1nc2cccnc2n1Cc1ccc(F)cc1    active
24  CC(=O)Nc1ccc(Nc2c(CCC(C)C)c(C)c(C#N)c3nc4ccccc4n23)cc1  inactive
25            CCCCOc1ccc(C2(C(=O)O)CCCC2)cc1  inactive
26  CCc1c(C)c(C#N)c2nc3ccccc3n2c1Nc1cccc(C(F)(F)F)c1    active
27  COc1ccc(Cl)cc1NC(=O)CCc1c(C)nc2c(c1C)c(=O)n(C)c(=O)n2C  inactive
28  COc1ccc(-c2cc(C(=O)OC(C)C(=O)c3ccccc3)c3cccc(Cl)c3n2)cc1 (centres undefined)  inactive
29  CC(=O)c1ccc(N2CCN(c3ncnc4onc(C)c34)CC2)cc1  inactive
30  Cc1ccc(-n2cc(C(=O)Oc3cccc(C)c3)c3ccccc3c2=O)cc1  inactive
31  CCCCC(=O)N1c2ccccc2C(C)(c2ccccc2)CC1(C)C (centres undefined)    active
32  CCOC(=O)C1=C(CN2CCN(c3cccc(OC)c3)CC2)NC(=O)NC1c1ccc(OC)cc1 (centres undefined)  inactive
33  COCc1cc(C)nc2c1C(=O)NC(c1ccc(Br)cc1)N2Cc1ccccc1 (centres undefined)  inactive
34      COc1ccccc1NC(=O)CN1C(=O)CCSc2ccccc21  inactive

====

# Tested on: DeltatarO mutant
# measurement-description: S. aureus survival, RN4220 and DeltatarO strains – OD600, teichoic acid synthesis inhibitors, primary screen (AID 463173)
# experimental-setup: S. aureus RN4220 wild type/DeltatarO growth, OD600, 18 h, screened at 18.75 µg/mL (by protocol)
The whole screen tested about 52,000 compounds, of which about 4,300 (8.3%) were called active. Rule as the data show it: active = survival mostly below about 52% (no sharp cut-off); inactive = mostly above about 56%. The sample holds actives, similar compounds and a random draw of the others, so the mix is not that of the screen.
Outcome codes: Y = active, N = inactive

> print(dat)
                                    compound  cat
 1  Cc1ccc(Cl)cc1-n1ncc2c(Nc3ccc4c(c3)OCCO4)ncnc21    N
 2  Cc1cccc(NC(=O)CSc2cn(CC(=O)N3CCCC3)c3ccccc23)c1C    N
 3  Fc1ccccc1N1CCN(c2nnc(C(F)(F)F)c3nnn(Cc4ccccc4)c23)CC1    N
 4  O=C(Cn1c(C(=O)N(Cc2ccco2)CC2CCCO2)cc2sccc21)c1ccccc1 (stereo not drawn)    Y
 5  CC(=O)c1c(C)oc2ccc(N(C(=O)Oc3ccccc3)S(=O)(=O)c3ccc(Cl)cc3)cc12    N
 6                 Nc1cccc(-c2cn3ccccc3n2)c1    N
 7  O=C(Cn1c(C(=O)NCC2CCCO2)cc2sccc21)c1ccccc1 (stereo not drawn)    N
 8   CCc1ccc(-c2nc3ccc(Br)cc3c(C(=O)O)c2C)s1    Y
 9  COCCCNC(=O)Cn1nc(N2CCN(c3ccccc3)CC2)ccc1=O    N
10  COc1cccc(CNC(=O)CCc2c(C)c3cc4c(C)coc4c(C)c3oc2=O)c1    N
11  COc1ccc(OC(=O)c2cn(-c3cccc(OC)c3)c(=O)c3ccccc23)cc1    N
12  CCOC(=O)N1CCN(Cc2nc3cc([N+](=O)[O-])ccc3n2C(C)C)CC1    N
13  Cc1cc(C)n(CC(C)O)c(=O)c1C#N (stereo not drawn)    N
